Data provenance: PubChem BioAssay AID488969

target: Metabotropic glutamate receptor 8 (Rattus norvegicus) (UniProt P70579); assay: mGluR8 Gi/Go-coupled signaling modulation – cell-based, rat, thallium flux, HTS, primary screen (AID 488969); conditions: HEK293 rat mGluR8, GIRK thallium flux, FluoZin2; at 10 µM; stronger effect = higher value; submaximal glutamate (EC20) added with thallium
Sequence (P70579 whole entry, looked up): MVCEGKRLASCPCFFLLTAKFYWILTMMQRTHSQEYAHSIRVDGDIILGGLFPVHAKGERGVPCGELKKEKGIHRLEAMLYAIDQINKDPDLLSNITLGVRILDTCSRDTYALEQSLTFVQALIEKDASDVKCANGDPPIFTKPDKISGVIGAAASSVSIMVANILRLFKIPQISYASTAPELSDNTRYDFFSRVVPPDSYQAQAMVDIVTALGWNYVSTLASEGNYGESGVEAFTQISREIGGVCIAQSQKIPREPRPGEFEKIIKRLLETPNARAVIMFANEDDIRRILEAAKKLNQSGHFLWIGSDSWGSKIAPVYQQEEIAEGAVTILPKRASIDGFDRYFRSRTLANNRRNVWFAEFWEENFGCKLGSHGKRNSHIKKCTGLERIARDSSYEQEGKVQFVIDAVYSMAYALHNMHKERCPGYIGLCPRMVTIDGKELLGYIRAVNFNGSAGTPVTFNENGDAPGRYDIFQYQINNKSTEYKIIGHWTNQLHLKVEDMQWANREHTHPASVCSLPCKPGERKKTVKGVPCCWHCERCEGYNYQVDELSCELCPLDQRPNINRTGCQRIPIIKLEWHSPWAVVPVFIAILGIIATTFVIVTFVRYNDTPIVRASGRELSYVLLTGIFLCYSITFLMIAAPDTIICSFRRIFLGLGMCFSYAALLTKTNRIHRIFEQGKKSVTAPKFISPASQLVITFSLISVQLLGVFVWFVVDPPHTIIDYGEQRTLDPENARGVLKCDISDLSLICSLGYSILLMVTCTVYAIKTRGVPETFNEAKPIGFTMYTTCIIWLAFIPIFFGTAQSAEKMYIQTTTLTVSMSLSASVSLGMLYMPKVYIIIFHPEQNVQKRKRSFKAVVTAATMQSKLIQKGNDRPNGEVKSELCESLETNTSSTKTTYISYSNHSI
In all, about 110,000 compounds were measured (“z-score”: median about -0.1, highest 2% from about 2 on). Shown is part of a subset that was picked to be rich in the highest values.
Assignment: determine reported z-score for the given molecules.
One number for each entry.

C/C(=N\NC(=O)c1ccccc1)c1ccc2c(c1)OCO2
-0.195
CCCCCCCn1c(=N)n(CC(=O)c2ccco2)c2ccccc21
4.65
CC1(C)CC(=O)C=C(NC2CCCCCCC2)C1
-0.289

# per-item lookup of z-score; items listed below
1. Cc1ccccc1Cn1c(=N)n(CC(=O)c2ccco2)c2ccccc21
2. C/C(=N\NC(=S)Nc1ccc(F)cc1)c1ccc2c(c1)OCCO2
3. C/C(=N/NC(=O)c1ccc2c(c1)OCO2)c1cccc(NC(=O)C(C)(C)C)c1
4. C/C(=N\NC(=S)Nc1ccc(F)cc1)C1CC1
5. Cc1ccc(Cn2c(=N)n(CC(O)c3ccco3)c3ccccc32)cc1 (stereo unspecified)
6. Cc1ccccc1Cn1c(=N)n(CC(=O)c2ccc([N+](=O)[O-])cc2)c2ccccc21
7. CCn1c(=N)n(CC(=O)c2ccco2)c2ccccc21
8. Cc1cc(C)nc(/N=C2\NC(=O)CC3C(=O)NCCN23)n1 (stereo unspecified)

Reply text:
1: 2.17; 2: 6.87; 3: -0.191; 4: -0.155; 5: 1.09; 6: 0.33; 7: 0.33; 8: -0.12

---

biological target: Metabotropic glutamate receptor 8 (Rattus norvegicus) (UniProt P70579); assay: mGluR8 Gi/Go-coupled signaling modulation – cell-based, rat, thallium flux, HTS, primary screen (AID 488969); conditions: HEK293 rat mGluR8, GIRK thallium flux, FluoZin2; at 10 µM; stronger effect = higher value; submaximal glutamate (EC20) added with thallium
Over roughly 110,000 compounds, “z-score” has its median near -0.1; the highest 2% begin near 2. The full list was thinned out, with the highest values kept by preference.
Assignment: determine reported z-score for the given molecules.
Give bare numbers.

Look over these answered cases.
O=C(/C=C/c1ccccc1)/C=C/c1ccccc1
-0.389
COc1ccc(-c2noc(CCC(=O)Nc3cc(Cl)c(OC)cc3OC)n2)cc1
-0.134
CCc1ccc(/C=C/C(=O)C2C(=O)c3ccccc3C2=O)cc1
3.92
CCc1ccc(/C=C/C(=O)c2c(C)cc(C)[nH]c2=O)cc1
-0.106
O=C(OCC1COc2ccccc2O1)c1c(F)cccc1F (stereo unspecified)
0.396

# per-item lookup of z-score; items listed below
1. O=S(=O)(Nc1cc(Sc2cccc3cccnc23)c(O)c2ccccc12)c1ccc(F)cc1
2. Cc1ccc2c(c1)c1c(n2CC(O)CN2C(=O)CNC2=O)C(=O)CCC1 (stereo unspecified)
3. O=C(/C=C/c1ccccc1)C1C(=O)c2ccccc2C1=O
4. Cn1nc(C(=O)NC2CCCCCC2)ccc1=O
5. COc1ccc(CCNC(=O)COC(=O)c2ccc(Br)o2)cc1OC

Reply text:
1. 5.2
2. 0.0317
3. 4.21
4. 1.32
5. 0.125

Inquiry: What does the record list as z-score for "COc1cc2c(cc1OC)CN(C(=O)C(C)(C)C)CC2" ?
Reply text: -0.104

---

target: Metabotropic glutamate receptor 8 (Rattus norvegicus) (UniProt P70579); test: mGluR8 Gi/Go-coupled signaling modulation – cell-based, rat, thallium flux, HTS, primary screen (AID 488969); settings: HEK293 rat mGluR8, GIRK thallium flux, FluoZin2; at 10 µM; stronger effect = higher value; submaximal glutamate (EC20) added with thallium
Over roughly 110,000 compounds, “z-score” has its median near -0.1; the highest 2% begin near 2. For the sample, the highest values were picked, then their nearest neighbours and some compounds at random.
Assignment: determine reported z-score for the given molecules.
One number for each entry.

# per-item lookup of z-score; items listed below
1. O=C(NCc1ccco1)c1cc(-c2ccc3c(c2)OCO3)on1
2. COCCn1c(SCC(=O)c2ccc3c(c2)OCCO3)nnc1-c1ccoc1C
3. Cc1ccc(C)c(OCC(=O)NCCN(C)C)c1
4. COc1ccc(CNC(=O)Cc2c(C(=O)O)[nH]c3ccccc23)cc1
5. Cc1nn(-c2ccccc2)c(Cl)c1/C=N/NC(=O)C1COc2ccccc2O1 (stereo unspecified)
6. COc1ccc(CNC(=O)Cc2csc(Nc3nc(=S)[nH]c4ccccc34)n2)cc1

Reply text:
1. -0.862
2. -0.231
3. 0.356
4. -0.136
5. -0.169
6. 8.83

---

molecular target: Metabotropic glutamate receptor 8 (Rattus norvegicus) (UniProt P70579); test: mGluR8 Gi/Go-coupled signaling modulation – cell-based, rat, thallium flux, HTS, primary screen (AID 488969); conditions: HEK293 rat mGluR8, GIRK thallium flux, FluoZin2; at 10 µM; stronger effect = higher value; submaximal glutamate (EC20) added with thallium
In all, about 110,000 compounds were measured (“z-score”: median about -0.1, highest 2% from about 2 on). The sample holds the highest values, similar compounds and a random draw of the others, so the mix is not that of the screen.
Binary call on z-score: T from 0.3 upward, F beneath that.

Look over these answered cases.
COc1ccc(CCNC(=O)c2c(-c3ccccc3Cl)noc2C)cc1
F
O=C(NC(=S)NCCc1ccccc1)c1ccccc1
T
Cc1onc(-c2ccccc2Cl)c1C(=O)NCc1ccccc1
T
Cc1cc(N2CCOCC2)nc2ccccc12
F

Inquiry: Evaluate "O=C(CNC(=S)NC(=O)c1ccccc1)c1ccccc1" : z-score at minimum 0.3?
Reply text: F

Inquiry: Next compound: "COc1cc(OC)cc(C(=O)NC(=S)NNC(=O)Cc2cccs2)c1"
Reply text: T

Inquiry: Next compound: "O=C(CNC(=S)NC(=O)c1cccs1)c1ccccc1"
Reply text: T

Inquiry: Next compound: "Cc1onc(-c2ccccc2Cl)c1C(=O)NC(=S)NCCc1ccccc1"
Reply text: T

Inquiry: Next compound: CCC(C(=O)OCC(=O)Nc1ccc(Cl)c(S(=O)(=O)N(C)C)c1)c1ccccc1 (configuration not stated)
Reply text: F

Inquiry: Next compound: "O=c1cc(CN2CCN(CCO)CC2)c2cc3c(cc2o1)CCC3"
Reply text: T

Inquiry: Next compound: "CCCCc1ccc(NC(=S)Nc2ccc(Cl)c(S(=O)(=O)N(C)C)c2)cc1"
Reply text: T

Inquiry: Next compound: "Cc1ccc(C(=O)NC(=S)NCC(=O)c2ccccc2)cc1"
Reply text: F

---

target: Metabotropic glutamate receptor 8 (Rattus norvegicus); assay: mGluR8 Gi/Go-coupled signaling modulation – cell-based, rat, thallium flux, HTS, primary screen (AID 488969); settings: HEK293 rat mGluR8, GIRK thallium flux, FluoZin2; at 10 µM; stronger effect = higher value; submaximal glutamate (EC20) added with thallium
In all, about 110,000 compounds were measured (“z-score”: median about -0.1, highest 2% from about 2 on). The sample holds the highest values, similar compounds and a random draw of the others, so the mix is not that of the screen.
Assignment: determine reported z-score for the given compounds.
Give bare numbers.

Look over these answered cases.
CCC(C)(C)n1nnnc1CN1CCN(c2nc3cc(OC)ccc3cc2C#N)CC1
-1.2
Cc1ccc2c(Cl)cc(Cl)c(OCC(=O)NCc3ccco3)c2n1
3.48
CCCCCNc1nc(-c2ccccc2)cs1
3.86
Cc1ccccc1OCCCC(=O)Nc1ccc2c(c1)OCO2
0.157
Cc1cc(=O)[nH]c(SCC(=O)C23CC4CC(CC(C4)C2)C3)c1C#N
-0.0485

# per-item lookup of z-score; items listed below
1. CC(=C/c1ccc(C(C)C)cc1)/C=N/NC(=O)c1ccncc1
2. CC(/C=N/NC(=O)c1ccncc1)=C\c1ccccc1
3. O=C1CSC(=S)N1CC1CCCO1 (stereo unspecified)
4. Cc1ccc(S(=O)(=O)NCC(=O)N(CC(=O)NCc2ccco2)Cc2ccc3c(c2)OCO3)cc1
5. Cc1ccc(-n2c(C3CC3c3ccc(Cl)cc3)n[nH]c2=S)cc1 (stereo unspecified)
6. CC(=O)c1c(C)[nH]c(C(=O)COC(=O)CNS(=O)(=O)c2ccccc2)c1C

Reply text:
[2.21, 0.474, -0.08, -0.622, 0.832, -0.187]

---

target: Metabotropic glutamate receptor 8 (Rattus norvegicus) (UniProt P70579); test: mGluR8 Gi/Go-coupled signaling modulation – cell-based, rat, thallium flux, HTS, primary screen (AID 488969); conditions: HEK293 rat mGluR8, GIRK (G protein-gated inwardly rectifying potassium channel) thallium flux, FluoZin2; at 10 µM; stronger effect = higher value; submaximal glutamate (EC20) added with thallium
Over roughly 110,000 compounds, “z-score” has its median near -0.1; the highest 2% begin near 2. For the sample, the highest values were picked, then their nearest neighbours and some compounds at random.
Assignment: determine reported z-score for the given molecules.
Answers are plain numbers.

CCN(CCO)c1ncnc2c1sc1nc(C(C)C)c3c(c12)CC(C)(C)OC3
-0.241
Cc1ccc(S(=O)(=O)Nc2ccccc2-c2ccccc2NS(=O)(=O)c2ccc(C)cc2)cc1
-0.159
CCc1ccc2c(c1)C(=O)c1ccccc1C2=O
-0.389

# per-item lookup of z-score; items listed below
1. Cn1c(=O)[nH]c(=O)c2c1nc(NCc1ccccc1)n2CCCc1ccccc1
2. CN(C(=O)c1ccccc1Cl)C1CCCCC1

Reply text:
1: -0.132; 2: 0.549

# per-item lookup of z-score; items listed below
1. CN(C)CCNc1nc2c(c(=O)[nH]c(=O)n2C)n1CCCc1ccccc1
2. CCc1ccc2c(c1)C1(NN=C(c3ccc(C)cc3)S1)C(=O)N2 (stereo not drawn)
3. O=S(=O)(Nc1ccc(N=Nc2ccccc2)cc1)c1ccccc1
4. O=C(CCl)c1ccc(Cc2ncc(C(F)(F)F)cc2Cl)s1
5. CC1CCCCN1C(=O)CSc1nnc(-c2cccnc2)n1C1CCCCC1 (stereo not drawn)

Reply text:
1. 3.35
2. 3.15
3. -0.241
4. -0.0387
5. 0.109

# per-item lookup of z-score; items listed below
1. Cc1ccc(NS(=O)(=O)c2ccc3c(c2)C(=O)c2ccccc2C3=O)c(C)c1
2. Cn1c(=O)[nH]c(=O)c2c1nc(NCCCO)n2CCCc1ccccc1
3. CCOc1ccc(C(C)=O)cc1N1C(=O)C2C3C=CC(C3)C2C1=O (stereo not drawn)
4. CCn1nnc(-c2ccccc2NC(=O)c2cc(OC)cc(OC)c2)n1
5. CC(=O)c1ccc(Cc2ncc(C(F)(F)F)cc2Cl)s1

Reply text:
[-0.0521, 0.0396, -0.533, -0.139, -0.823]

# per-item lookup of z-score; items listed below
1. COC(=O)C1=C(C)N(Cc2ccc(OC)cc2)C(=O)C1
2. CCOC(=O)c1c(C)[nH]c(=S)c(C#N)c1-c1ccc(OC)cc1
3. COC(=O)C1=C(C)N(CCc2ccc(OC)cc2)C(=O)C1
4. CCOC(=O)c1c(C)[nH]c(=S)c(C#N)c1-c1ccc(Cl)cc1

Reply text:
1. -0.151
2. 0.501
3. 2.28
4. 3.4
